Target: TRIM25 PRY/SPRY (UniProt Q14258 439-630)
Sequence (Q14258 439-630): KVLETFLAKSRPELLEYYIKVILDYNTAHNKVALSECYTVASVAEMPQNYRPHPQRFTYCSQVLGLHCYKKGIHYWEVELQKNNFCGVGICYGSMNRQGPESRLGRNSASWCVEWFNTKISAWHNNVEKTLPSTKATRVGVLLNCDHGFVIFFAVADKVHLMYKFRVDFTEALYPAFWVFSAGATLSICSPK
Experiment: ITC; ITC and filter binding: 20 mM MES pH 6.5, 75 mM NaCl, 0.5 mM TCEP (ITC 20 C, filter binding on ice); NMR: 20 mM Na phosphate pH 6.5, 150 mM NaCl, 2 mM TCEP, 293 K
Conditions: protein: recombinant; tags: His-Trx (removed); chain copies: 3; hairpin
pKd: −log10 of the molar value.

binder: GUAUAGUUUAAAAGGAGAUAACUAUAC (structured_RNA) [pre-let-7a-1@2]
pKd: 5.30
